- Test system: Plasmodium falciparum
- assay explanation: Antimalarial activity against chloroquine-sensitive Plasmodium falciparum D6 assessed as inhibition of [3H]hypoxanthine incorporation after 96 hrs by microtiter plate scintillation counting
- Format: functional, organism-based
pIC50: −log10 of the molar value.
Would you mind labelling by pIC50? At or over 6 is met, under is not met.

Has "CCCCNC(=O)NCCCN1C[C@H](C)C[C@@](C)(O)[C@H](O[C@@H]2O[C@H](C)C[C@H](N(C)C)[C@H]2O)[C@@H](C)[C@H](O[C@H]2C[C@@](C)(OC)[C@@H](O)[C@H](C)O2)[C@@H](C)C(=O)O[C@H](CC)[C@@](C)(O)[C@H](O)[C@H]1C" a recorded pIC50 greater than or equal to 6?
not met

Has "CC[C@H]1OC(=O)[C@H](C)[C@@H](O[C@H]2C[C@@](C)(OC)[C@@H](O)[C@H](C)O2)[C@H](C)[C@@H](O[C@@H]2O[C@H](C)C[C@H](N(C)C)[C@H]2O)[C@](C)(O)C[C@@H](C)CN(CCCNC(=O)Nc2ccc(CC#N)cc2)[C@H](C)[C@@H](O)[C@]1(C)O" a recorded pIC50 greater than or equal to 6?
not met

Has "CC[C@H]1OC(=O)[C@H](C)[C@@H](O[C@H]2C[C@@](C)(OC)[C@@H](O)[C@H](C)O2)[C@H](C)[C@@H](O[C@@H]2O[C@H](C)C[C@H](N(C)C)[C@H]2O)[C@](C)(O)C[C@@H](C)CN(CCCNC(=O)Nc2cccc(C(F)(F)F)c2)[C@H](C)[C@@H](O)[C@]1(C)O" a recorded pIC50 greater than or equal to 6?
met

Has "CC[C@H]1OC(=O)[C@H](C)[C@@H](O[C@H]2C[C@@](C)(OC)[C@@H](O)[C@H](C)O2)[C@H](C)[C@@H](O[C@@H]2O[C@H](C)C[C@H](N(C)C)[C@H]2O)[C@](C)(O)C[C@@H](C)CN(CCCNC(=O)Nc2cc(F)cc3c2OCOC3)[C@H](C)[C@@H](O)[C@]1(C)O" a recorded pIC50 greater than or equal to 6?
met

Has "CC[C@H]1OC(=O)[C@H](C)[C@@H](O[C@H]2C[C@@](C)(OC)[C@@H](O)[C@H](C)O2)[C@H](C)[C@@H](O[C@@H]2O[C@H](C)C[C@H](N(C)C)[C@H]2O)[C@](C)(O)C[C@@H](C)CN(CCCNC(=S)Nc2ccc(Oc3ccccc3)nc2)[C@H](C)[C@@H](O)[C@]1(C)O" a recorded pIC50 greater than or equal to 6?
met

Has "CC[C@H]1OC(=O)[C@H](C)[C@@H](O[C@H]2C[C@@](C)(OC)[C@@H](O)[C@H](C)O2)[C@H](C)[C@@H](O[C@@H]2O[C@H](C)C[C@H](N(C)C)[C@H]2O)[C@](C)(O)C[C@@H](C)CN(CCCNC(=S)Nc2ccc(F)c(F)c2F)[C@H](C)[C@@H](O)[C@]1(C)O" a recorded pIC50 greater than or equal to 6?
met

Has "CC[C@H]1OC(=O)[C@H](C)[C@@H](O[C@H]2C[C@@](C)(OC)[C@@H](O)[C@H](C)O2)[C@H](C)[C@@H](O[C@@H]2O[C@H](C)C[C@H](N(C)C)[C@H]2O)[C@](C)(O)C[C@@H](C)CN(CCCNC(=S)NCCN2CCCCC2)[C@H](C)[C@@H](O)[C@]1(C)O" a recorded pIC50 greater than or equal to 6?
not met

Has "CC[C@H]1OC(=O)[C@H](C)[C@@H](O[C@H]2C[C@@](C)(OC)[C@@H](O)[C@H](C)O2)[C@H](C)[C@@H](O[C@@H]2O[C@H](C)C[C@H](N(C)C)[C@H]2O)[C@](C)(O)C[C@@H](C)CN(CCCNC(=O)Nc2ccc3c(c2)OCCCO3)[C@H](C)[C@@H](O)[C@]1(C)O" a recorded pIC50 greater than or equal to 6?
met

Has "CC[C@H]1OC(=O)[C@H](C)[C@@H](O[C@H]2C[C@@](C)(OC)[C@@H](O)[C@H](C)O2)[C@H](C)[C@@H](O[C@@H]2O[C@H](C)C[C@H](N(C)C)[C@H]2O)[C@](C)(O)C[C@@H](C)CN(CCCNC(=S)NCc2ccc3c(c2)OCO3)[C@H](C)[C@@H](O)[C@]1(C)O" a recorded pIC50 greater than or equal to 6?
met

----------
For each of the molecules below, state its IC50.
- System: Plasmodium falciparum
- assay explanation: Antimalarial activity against chloroquine-sensitive Plasmodium falciparum D6 assessed as inhibition of [3H]hypoxanthine incorporation after 96 hrs by microtiter plate scintillation counting
- Type: functional, organism-based

Provide measured IC50 value, entry: "CCCCNC(=S)NCCCN1C[C@H](C)C[C@@](C)(O)[C@H](O[C@@H]2O[C@H](C)C[C@H](N(C)C)[C@H]2O)[C@@H](C)[C@H](O[C@H]2C[C@@](C)(OC)[C@@H](O)[C@H](C)O2)[C@@H](C)C(=O)O[C@H](CC)[C@@](C)(O)[C@H](O)[C@H]1C"
0.655 µM

Provide measured IC50 value, entry: "CC[C@H]1OC(=O)[C@H](C)[C@@H](O[C@H]2C[C@@](C)(OC)[C@@H](O)[C@H](C)O2)[C@H](C)[C@@H](O[C@@H]2O[C@H](C)C[C@H](N(C)C)[C@H]2O)[C@](C)(O)C[C@@H](C)CN(CCCNC(=O)Nc2ccc3c(c2)CCO3)[C@H](C)[C@@H](O)[C@]1(C)O"
2.05 µM

Provide measured IC50 value, entry: "CC[C@H]1OC(=O)[C@H](C)[C@@H](O[C@H]2C[C@@](C)(OC)[C@@H](O)[C@H](C)O2)[C@H](C)[C@@H](O[C@@H]2O[C@H](C)C[C@H](N(C)C)[C@H]2O)[C@](C)(O)C[C@@H](C)CN(CCCNC(=O)Nc2ccc(OCc3ccccc3)cc2)[C@H](C)[C@@H](O)[C@]1(C)O"
0.299 µM

Provide measured IC50 value, entry: "CC[C@H]1OC(=O)[C@H](C)[C@@H](O[C@H]2C[C@@](C)(OC)[C@@H](O)[C@H](C)O2)[C@H](C)[C@@H](O[C@@H]2O[C@H](C)C[C@H](N(C)C)[C@H]2O)[C@](C)(O)C[C@@H](C)CN(CCCNC(=S)NCCCN2CCOCC2)[C@H](C)[C@@H](O)[C@]1(C)O"
7.01 µM

----------
- Test system: Plasmodium falciparum
- assay explanation: Antimalarial activity against chloroquine-,pyrimethamine-resistant Plasmodium falciparum W2 assessed as inhibition of [3H]hypoxanthine incorporation after 96 hrs by microtiter plate scintillation counting
- Format: functional, organism-based
readout type: log10 IC50 (log10 of the value in µM)
In our notation, the value equals log10 of IC50 in µM.

Provide measured log10 IC50 value, entry: "CC[C@H]1OC(=O)[C@H](C)[C@@H](O[C@H]2C[C@@](C)(OC)[C@@H](O)[C@H](C)O2)[C@H](C)[C@@H](O[C@@H]2O[C@H](C)C[C@H](N(C)C)[C@H]2O)[C@](C)(O)C[C@@H](C)CN(CCCNC(=S)NCCN2CCOCC2)[C@H](C)[C@@H](O)[C@]1(C)O"
0.32

Provide measured log10 IC50 value, entry: "CC[C@H]1OC(=O)[C@H](C)[C@@H](O[C@H]2C[C@@](C)(OC)[C@@H](O)[C@H](C)O2)[C@H](C)[C@@H](O[C@@H]2O[C@H](C)C[C@H](N(C)C)[C@H]2O)[C@](C)(O)C[C@@H](C)CN(CCCNC(=O)Nc2ccc3c(c2)CCC3)[C@H](C)[C@@H](O)[C@]1(C)O"
-1.13

Provide measured log10 IC50 value, entry: "CC[C@H]1OC(=O)[C@H](C)[C@@H](O[C@H]2C[C@@](C)(OC)[C@@H](O)[C@H](C)O2)[C@H](C)[C@@H](O[C@@H]2O[C@H](C)C[C@H](N(C)C)[C@H]2O)[C@](C)(O)C[C@@H](C)CN(CCCNC(=S)Nc2ccc(C)cc2)[C@H](C)[C@@H](O)[C@]1(C)O"
-1.15

Provide measured log10 IC50 value, entry: "CCc1ccccc1NC(=S)NCCCN1C[C@H](C)C[C@@](C)(O)[C@H](O[C@@H]2O[C@H](C)C[C@H](N(C)C)[C@H]2O)[C@@H](C)[C@H](O[C@H]2C[C@@](C)(OC)[C@@H](O)[C@H](C)O2)[C@@H](C)C(=O)O[C@H](CC)[C@@](C)(O)[C@H](O)[C@H]1C"
-1.02

Provide measured log10 IC50 value, entry: "CC[C@H]1OC(=O)[C@H](C)[C@@H](O[C@H]2C[C@@](C)(OC)[C@@H](O)[C@H](C)O2)[C@H](C)[C@@H](O[C@@H]2O[C@H](C)C[C@H](N(C)C)[C@H]2O)[C@](C)(O)C[C@@H](C)CN(CCCNC(=O)Nc2ccc(OCc3ccccc3)cc2)[C@H](C)[C@@H](O)[C@]1(C)O"
-0.76

Provide measured log10 IC50 value, entry: "CC[C@H]1OC(=O)[C@H](C)[C@@H](O[C@H]2C[C@@](C)(OC)[C@@H](O)[C@H](C)O2)[C@H](C)[C@@H](O[C@@H]2O[C@H](C)C[C@H](N(C)C)[C@H]2O)[C@](C)(O)C[C@@H](C)CN(CCCNC(=S)NCc2ccco2)[C@H](C)[C@@H](O)[C@]1(C)O"
-0.35

Provide measured log10 IC50 value, entry: "CC[C@H]1OC(=O)[C@H](C)[C@@H](O[C@H]2C[C@@](C)(OC)[C@@H](O)[C@H](C)O2)[C@H](C)[C@@H](O[C@@H]2O[C@H](C)C[C@H](N(C)C)[C@H]2O)[C@](C)(O)C[C@@H](C)CN(CCCNC(=O)Nc2ccc(C#N)cc2)[C@H](C)[C@@H](O)[C@]1(C)O"
-1.01

Each recorded value in this set is attributed to ChEMBL document CHEMBL1681728.
